Collected EC50 values appear next to each entry.
Tested on: HUVEC
Assay: Cytotoxicity assay (monolayer), HUVEC
Type: cell-based
Details: ML (monolayer), read-out: HUVEC (EC50 Ave) ML
Observable: EC50

[[record]]
item_smiles = "CC[C@H](C)[C@H](NC(=O)[C@H](Cc1ccc(O)cc1)NC(=O)[C@H](CCC(=O)O)NC(C)=O)C(=O)N[C@@H](Cc1ccc(O)cc1)C(=O)NCC(=O)N[C@@H](CO)C(=O)N[C@@H](Cc1ccccc1)C(=O)N[C@@H](CCCCN)C(=O)NCCCOCCOCCOCCCNC(=O)O[C@H]1C(=O)[C@@]2(C)[C@H]([C@H](OC(=O)c3ccccc3)[C@]3(O)C[C@H](OC(=O)[C@H](O)[C@@H](NC(=O)c4ccccc4)c4ccccc4)C(C)=C1C3(C)C)[C@]1(OC(C)=O)CO[C@@H]1C[C@@H]2O"
assayed_target = "HUVEC"
readout_value = "> 100 nM"

[[record]]
item_smiles = "CC[C@]1(O)C[C@@H]2CN(CCc3c([nH]c4ccccc34)[C@@](C(=O)OC)(c3cc4c(cc3OC)N(C)[C@H]3[C@@](O)(C(=O)NCCCCCCCCCCCCN)[C@H](O)[C@]5(CC)C=CCN6CC[C@]43[C@@H]65)C2)C1"
assayed_target = "HUVEC"
readout_value = "< 20 nM"

[[record]]
item_smiles = "CC[C@]1(O)C[C@@H]2CN(CCc3c([nH]c4ccccc34)[C@@](C(=O)OC)(c3cc4c(cc3OC)N(C)[C@H]3[C@@](O)(C(=O)NCCCCCCN)[C@H](O)[C@]5(CC)C=CCN6CC[C@]43[C@@H]65)C2)C1"
assayed_target = "HUVEC"
readout_value = "< 20 nM"


* * *

Assay: in vitro
Details: human
Observable: selectivity ratio

[[record]]
molecule = "CC[C@]1(O)C[C@@H]2CN(CCc3c([nH]c4ccccc34)[C@@](C(=O)OC)(c3cc4c(cc3OC)N(C)[C@H]3[C@@](O)(C(=O)OC)[C@H](OC(C)=O)[C@]5(CC)C=CCN6CC[C@]43[C@@H]65)C2)C1 [Vinblastine, reference compound]"
readout_value = 0.2

[[record]]
molecule = "CC[C@H](C)[C@H](NC(=O)[C@H](Cc1ccc(O)cc1)NC(=O)[C@H](CCC(=O)O)NC(C)=O)C(=O)N[C@@H](Cc1ccc(O)cc1)C(=O)NCC(=O)N[C@@H](CO)C(=O)N[C@@H](Cc1ccccc1)C(=O)N[C@@H](CCCCN)C(=O)NCCCOCCOCCOCCCNC(=O)O[C@H]1C(=O)[C@@]2(C)[C@H]([C@H](OC(=O)c3ccccc3)[C@]3(O)C[C@H](OC(=O)[C@H](O)[C@@H](NC(=O)c4ccccc4)c4ccccc4)C(C)=C1C3(C)C)[C@]1(OC(C)=O)CO[C@@H]1C[C@@H]2O"
readout_value = 24.1


* * *

Assay: Serum stability in RPMI1640 medium containing 10% fetal bovine serum
Type: in vitro ADME
Details: bovine, 8 hr, read-out: Relative Percent Remaining at 8 hr
Observable: remaining at 8 h, 10 μM (%)

[[record]]
molecule = "CC[C@H](C)[C@H](NC(=O)[C@H](Cc1ccc(O)cc1)NC(=O)C(C)(C)C)C(=O)N[C@@H](Cc1ccc(O)cc1)C(=O)NCC(=O)N[C@@H](CO)C(=O)N[C@@H](Cc1ccccc1)C(=O)N[C@@H](CCCNC(=N)N)C(=O)NCCCOCCOCCOCCCNC(=O)O[C@H]1C(=O)[C@@]2(C)[C@H]([C@H](OC(=O)c3ccccc3)[C@]3(O)C[C@H](OC(=O)[C@H](O)[C@@H](NC(=O)c4ccccc4)c4ccccc4)C(C)=C1C3(C)C)[C@]1(OC(C)=O)CO[C@@H]1C[C@@H]2O [Pv-YIYGSFR-PEG(13)-10Ca-PXL]"
observable = "remaining at 8 h, 10 μM"
readout_value = 63

